Biological target: T1, human PRLR on cells (endogenous on T47D, T47D#11, MCF7); introduced in HEK293/hPRLR/STAT5-Luc, 293/hPRLR, … (human, UniProt P16471 25-622)
T1 construct: no tag is stated for these lines; also called prolactin receptor
T1 sequence: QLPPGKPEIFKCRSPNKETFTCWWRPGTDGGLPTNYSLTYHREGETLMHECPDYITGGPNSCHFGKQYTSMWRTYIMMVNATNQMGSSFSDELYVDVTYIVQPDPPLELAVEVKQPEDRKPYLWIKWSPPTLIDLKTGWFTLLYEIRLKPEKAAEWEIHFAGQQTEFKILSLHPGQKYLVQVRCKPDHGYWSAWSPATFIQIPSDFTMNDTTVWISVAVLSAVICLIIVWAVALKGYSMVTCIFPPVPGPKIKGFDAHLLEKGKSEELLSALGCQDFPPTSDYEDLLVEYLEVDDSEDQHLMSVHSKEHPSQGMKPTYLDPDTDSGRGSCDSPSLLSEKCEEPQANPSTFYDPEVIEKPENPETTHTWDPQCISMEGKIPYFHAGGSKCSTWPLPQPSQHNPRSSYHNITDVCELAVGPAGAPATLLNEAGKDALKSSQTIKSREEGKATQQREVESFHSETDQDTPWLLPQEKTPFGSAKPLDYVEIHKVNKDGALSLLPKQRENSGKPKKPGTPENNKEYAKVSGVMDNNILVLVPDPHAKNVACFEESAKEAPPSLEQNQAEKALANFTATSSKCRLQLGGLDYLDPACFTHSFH
Assay: FACS on T47D cells
Attribute measured: FACS Cell Binding (Fold Above Background) (fold)
// return numeric value only (unit: fold, not printed)

Binder	Readout value
H1H6967N (antibody, human IgG1, V domains shown, also called H2M6967N) VH: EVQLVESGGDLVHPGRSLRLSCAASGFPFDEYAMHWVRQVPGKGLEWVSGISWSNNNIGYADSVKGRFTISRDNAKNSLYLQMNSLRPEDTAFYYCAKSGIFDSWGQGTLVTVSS VL: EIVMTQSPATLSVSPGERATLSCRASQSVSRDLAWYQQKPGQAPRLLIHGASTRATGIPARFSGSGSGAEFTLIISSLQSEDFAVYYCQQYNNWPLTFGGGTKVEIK	41
H1H6800P (antibody, human IgG1, V domains shown, human IgG1 Fc (H1H)) VH: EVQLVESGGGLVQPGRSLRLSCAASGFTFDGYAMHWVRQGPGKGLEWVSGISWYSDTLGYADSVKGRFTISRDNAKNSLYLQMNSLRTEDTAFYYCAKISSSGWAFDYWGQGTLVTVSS VL: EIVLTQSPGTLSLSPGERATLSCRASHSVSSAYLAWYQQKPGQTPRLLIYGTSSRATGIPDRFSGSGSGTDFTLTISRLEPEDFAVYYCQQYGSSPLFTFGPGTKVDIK	41
H1H6765P (antibody, human IgG1, V domains shown, human IgG1 Fc (H1H)) VH: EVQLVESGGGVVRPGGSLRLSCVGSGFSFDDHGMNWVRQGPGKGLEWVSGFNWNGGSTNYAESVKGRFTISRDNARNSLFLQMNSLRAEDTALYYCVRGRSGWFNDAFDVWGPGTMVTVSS VL: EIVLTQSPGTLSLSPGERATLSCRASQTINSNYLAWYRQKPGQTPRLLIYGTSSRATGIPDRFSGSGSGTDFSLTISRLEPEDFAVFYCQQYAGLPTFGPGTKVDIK	40
H1H6774P (antibody, human IgG1, V domains shown, human IgG1 Fc (H1H)) VH: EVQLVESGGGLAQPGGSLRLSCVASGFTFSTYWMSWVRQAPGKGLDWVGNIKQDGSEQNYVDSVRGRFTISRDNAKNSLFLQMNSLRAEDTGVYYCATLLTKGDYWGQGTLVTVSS VL: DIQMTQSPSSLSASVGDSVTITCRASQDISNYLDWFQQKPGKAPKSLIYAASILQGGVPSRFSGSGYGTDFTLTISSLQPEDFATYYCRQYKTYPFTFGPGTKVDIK	39

Continue with the next binder.
// sample H1H6803P (antibody, human IgG1, V domains shown, human IgG1 Fc (H1H)) VH: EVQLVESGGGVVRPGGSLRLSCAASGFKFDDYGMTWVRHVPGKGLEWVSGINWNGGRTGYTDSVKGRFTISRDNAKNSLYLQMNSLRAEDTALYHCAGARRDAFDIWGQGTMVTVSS VL: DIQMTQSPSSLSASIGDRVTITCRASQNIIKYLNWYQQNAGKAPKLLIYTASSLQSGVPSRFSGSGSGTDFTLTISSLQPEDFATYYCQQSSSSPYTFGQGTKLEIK , its FACS Cell Binding (Fold Above Background) was 39
